Tested on: Hepatitis B virus
Assay: Antiviral activity against wild type HBV infected in human HepG2 2.2.15 cells assessed as reduction in viral replication by DNA HYB (RI)/neutral red (Tox) assay
Format: functional, organism-based
Details: HepG2.2.15
pEC50: −log10 of the molar value.

{"columns": ["Molecule", "pEC50"],
 "data": [
  ["Nc1ccn([C@@H]2CS[C@H](CO)O2)c(=O)n1", 6.89],
  ["C#CC(CO)(Cn1cnc2c(=O)[nH]c(N)nc21)OCP(=O)(O)O (configuration not stated)", 6.27]
]}

---

Overview of recorded selectivity ratio for various compounds
Assay: Selectivity index, ratio of CC50 cytotoxicity against human HepG2.2.15 cells assessed as reduction in cell viability to EC50 for antiviral activity against wild type HBV infected in human HepG2 2.2.15 cells assessed as reduction in viral replication by DNA HYB (RI)/neutral red (Tox) assay
Assay type: toxicity, cell-based
Details: read-out: Selectivity Index
Reported Property: selectivity ratio

{"columns": ["Compound", "Relation Sign", "Numeric Readout"],
 "data": [
  ["Nc1ccn([C@@H]2CS[C@H](CO)O2)c(=O)n1 [LAMIVUDINE]", "=", 16200],
  ["C#CC(CO)(Cn1cnc2c(=O)[nH]c(N)nc21)OCP(=O)(O)O (configuration not stated)", ">", 185]
]}
